Molecular target: hmGluR1 receptor (Homo sapiens)
Construct: expressed in transfected cells; host or cells: CHO
Test: IC50 Determination: intracellular calcium mobilization (FLIPR) in a CHO cell line stably expressing hmGluR1 receptor, against Quisqualate
Type: cell-based
Details: CHO cells expressing hmGluR1; against Quisqualate 1 μM (EC80); compounds added 10 minutes before agonist; read-out: mGluR1 IC50
observed.property: IC50 (nM)

Please review the following examples before continuing.
{"molecule": "C[C@@H]1CNc2c(cnc3sc4c(=O)n(-c5ccc(Cl)cc5)cnc4c23)O1 [Compound 38b]", "unit.symbol": "nM", "IC50": 1.4}
{"molecule": "Cn1cnc2cnc3sc4c(=O)n(-c5ccc(Cl)cc5)cnc4c3c21", "unit.symbol": "nM", "IC50": 9.8}

(1) O=c1c2sc3ncc4cc[nH]c4c3c2ncn1-c1ccc(Cl)cc1
(2) O=c1c2sc3ncc4nc[nH]c4c3c2ncn1-c1ccc(Cl)cc1
## Task Pick one, 1 or 2 : lowest reported IC50. Kindly give the label for the entry you pick.
## Result 1
(1: 0.4 nM, 2: 6 nM)

----------
Molecular target: hmGluR1 receptor (Homo sapiens, UniProt Q13255)
Construct: expressed in transfected cells; host or cells: CHO
Sequence (Q13255 19-1194): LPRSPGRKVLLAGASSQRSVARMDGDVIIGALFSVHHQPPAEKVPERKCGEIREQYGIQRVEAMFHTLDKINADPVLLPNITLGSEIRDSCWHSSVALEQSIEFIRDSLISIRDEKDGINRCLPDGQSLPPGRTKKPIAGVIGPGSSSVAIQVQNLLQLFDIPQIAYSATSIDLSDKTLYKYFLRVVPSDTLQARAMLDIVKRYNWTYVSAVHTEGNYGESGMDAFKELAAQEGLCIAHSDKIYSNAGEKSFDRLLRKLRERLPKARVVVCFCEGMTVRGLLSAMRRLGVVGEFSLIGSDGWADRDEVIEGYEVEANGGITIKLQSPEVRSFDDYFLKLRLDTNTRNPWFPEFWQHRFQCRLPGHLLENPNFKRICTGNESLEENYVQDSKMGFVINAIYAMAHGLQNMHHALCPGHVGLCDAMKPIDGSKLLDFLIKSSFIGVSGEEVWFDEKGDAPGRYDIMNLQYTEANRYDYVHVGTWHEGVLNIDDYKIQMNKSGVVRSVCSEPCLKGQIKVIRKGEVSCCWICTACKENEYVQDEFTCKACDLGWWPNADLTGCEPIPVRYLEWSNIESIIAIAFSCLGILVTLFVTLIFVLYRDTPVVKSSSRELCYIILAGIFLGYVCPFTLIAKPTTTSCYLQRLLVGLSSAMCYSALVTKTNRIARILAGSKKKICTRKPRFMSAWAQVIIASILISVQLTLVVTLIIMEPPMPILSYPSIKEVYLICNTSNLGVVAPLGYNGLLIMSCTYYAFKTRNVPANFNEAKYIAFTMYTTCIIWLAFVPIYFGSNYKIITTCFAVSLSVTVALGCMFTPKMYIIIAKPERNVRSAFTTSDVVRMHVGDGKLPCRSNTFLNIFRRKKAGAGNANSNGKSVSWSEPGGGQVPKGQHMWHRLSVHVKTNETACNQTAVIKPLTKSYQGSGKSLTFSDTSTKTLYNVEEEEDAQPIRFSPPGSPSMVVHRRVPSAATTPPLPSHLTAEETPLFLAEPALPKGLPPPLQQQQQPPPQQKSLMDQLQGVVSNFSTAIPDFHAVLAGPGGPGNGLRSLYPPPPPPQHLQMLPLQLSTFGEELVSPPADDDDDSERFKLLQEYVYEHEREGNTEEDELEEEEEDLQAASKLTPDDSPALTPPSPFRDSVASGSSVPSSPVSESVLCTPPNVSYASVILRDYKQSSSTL
Assay: IC50 Determination: intracellular calcium mobilization (FLIPR) in a CHO cell line stably expressing hmGluR1 receptor, against Quisqualate
Type: cell-based
Conditions: CHO cells expressing hmGluR1; against Quisqualate 1 μM (EC80); compounds added 10 minutes before agonist; read-out: mGluR1 IC50 rating
observed.property: IC50

Here's what some known entries look like.
{"compound": "CSc1nc2c(cnc3sc4c(=O)n(-c5ccc(C)cc5)cnc4c32)s1 [Compound 29]", "result": "100 to 1000 nM"}
{"compound": "C[C@@H](O)CNc1c(Br)cnc2sc3c(=O)n(-c4ccc(Cl)cc4)cnc3c12 [Compound 37b]", "result": "> 1000 nM"}
{"compound": "Cn1cnc2cnc3sc4c(=O)n(-c5ccc(Cl)cc5)cnc4c3c21 [Compound 36]", "result": "< 20 nM"}

As a next step, examine the compound that follows.
## Task Give reported IC50 value for O=c1c2sc3ncc4nc[nH]c4c3c2ncn1-c1ccc(Cl)cc1 [Compound 35]
## Result < 20 nM

----------
Quick reference for IC50 among some compounds
Biological target: hmGluR1 receptor (Homo sapiens)
Construct: expressed in transfected cells; host or cells: CHO
Assay: IC50 Determination: intracellular calcium mobilization (FLIPR) in a CHO cell line stably expressing hmGluR1 receptor, against Quisqualate
Type: cell-based
Conditions: CHO cells expressing hmGluR1; against Quisqualate 1 μM (EC80); compounds added 10 minutes before agonist; read-out: mGluR1 IC50 rating

The examples below pair each entry with its known result.
{"compound": "O=c1c2sc3ncc(Br)c(NCCO)c3c2ncn1-c1ccc(Cl)cc1 [Compound 37a]", "IC50": "< 20 nM"}
{"compound": "O=c1c2sc3ncc4c(c3c2ncn1-c1ccc(Cl)cc1)NCCO4 [Compound 38a]", "IC50": "< 20 nM"}
{"compound": "Cc1ccc(-n2cnc3c(sc4ncc5sc(=S)[nH]c5c43)c2=O)cc1 [Compound 28]", "IC50": "100 to 1000 nM"}
{"compound": "C[C@H]1COc2cnc3sc4c(=O)n(-c5ccc(Cl)cc5)cnc4c3c2N1 [Compound 38e]", "IC50": "< 20 nM"}

Here's the next entry for you.
## Task Given C[C@H]1CNc2c(cnc3sc4c(=O)n(-c5ccc(Cl)cc5)cnc4c23)O1 [Compound 38c] , respond with its IC50.
## Result < 20 nM
